Kindly supply the reported IC50 values for the records listed here.
System: guinea pig platelet aggregation
assay procedure: Inhibitory action on guinea pig platelet aggregation (ADP-stimulated PRP)
Type: cell-based
experimental context: Cavia porcellus, ADP final concentration 1 μM, in vitro, read-out: Inhibitory effect on platelet aggregation in vitro (IC50) guinea pig
Give the number; µM is assumed, so skip it.

Report the value of IC50 obtained on guinea pig platelet aggregation for N=C(N)NCc1ccc(C(=O)NCC(=O)N2CCN(CC(=O)O)C(=O)[C@@H]2CC(=O)O)cc1 . 1.3

Report the value of IC50 obtained on guinea pig platelet aggregation for N=C(N)c1ccc(C(=O)NCC(=O)N2CCN(CC(=O)O)C(=O)[C@@H]2CC(N)=O)cc1 . 0.11

Report the value of IC50 obtained on guinea pig platelet aggregation for N=C(N)c1ccc(C(=O)NCC(=O)N2CCN([C@@H](Cc3ccccc3)C(=O)O)C(=O)[C@@H]2CC(=O)O)cc1 . 4.1

Report the value of IC50 obtained on guinea pig platelet aggregation for CN(CC(=O)N1CCN(CC(=O)O)C(=O)[C@@H]1CC(=O)O)C(=O)c1ccc(NC(=N)N)cc1 . 0.37

Report the value of IC50 obtained on guinea pig platelet aggregation for NCCc1ccc(C(=O)NCC(=O)N2CCN(CC(=O)O)C(=O)C2)cc1 . 0.15

Report the value of IC50 obtained on guinea pig platelet aggregation for N=C(N)c1ccc(C(=O)NCC(=O)N2CCN(CC(=O)O)C(=O)[C@@H]2CCC(=O)O)cc1 . 0.066

Report the value of IC50 obtained on guinea pig platelet aggregation for COC(=O)CC[C@H]1C(=O)N(CC(=O)O)CCN1C(=O)CNC(=O)c1ccc(CCN)cc1 . 0.12

Report the value of IC50 obtained on guinea pig platelet aggregation for N=C(N)NC[C@H]1CC[C@H](C(=O)NCC(=O)N2CCN(CC(=O)O)C(=O)[C@@H]2CCC(=O)O)CC1 . 3.1

Report the value of IC50 obtained on guinea pig platelet aggregation for CN(C)CCc1ccc(C(=O)NCC(=O)N2CCN(CC(=O)O)C(=O)[C@@H]2CCC(N)=O)cc1 . 4.1

Report the value of IC50 obtained on guinea pig platelet aggregation for COC(=O)CN1CCN(C(=O)CNC(=O)c2ccc(C(=N)N)cc2)[C@@H](CC(=O)O)C1=O . 1.75

Report the value of IC50 obtained on guinea pig platelet aggregation for CN(C)CCc1ccc(C(=O)NCC(=O)N2CCN(CC(=O)O)C(=O)[C@@H]2CCC(=O)O)cc1 . 2.5

Report the value of IC50 obtained on guinea pig platelet aggregation for C[C@@H](C(=O)O)N1CCN(C(=O)CNC(=O)c2ccc(C(=N)N)cc2)[C@@H](CC(=O)O)C1=O . 1.5

Report the value of IC50 obtained on guinea pig platelet aggregation for N=C(N)NC[C@H]1CC[C@H](C(=O)NCC(=O)N2CCN(CC(=O)O)C(=O)[C@@H]2Cc2ccccc2)CC1 . 4.6

Report the value of IC50 obtained on guinea pig platelet aggregation for CCC(C)[C@H]1C(=O)N(CC(=O)O)CCN1C(=O)CNC(=O)c1ccc(NC(=N)N)cc1 (stereo partly drawn) . 4.6

Report the value of IC50 obtained on guinea pig platelet aggregation for N=C(N)NC[C@H]1CC[C@H](C(=O)NCC(=O)N2CCN(CC(=O)O)C(=O)[C@@H]2CC(N)=O)CC1 . 4.4

====

System: guinea pig platelet aggregation
assay procedure: Inhibitory action on guinea pig platelet aggregation (ADP-stimulated PRP)
Assay type: cell-based
experimental context: Cavia porcellus, ADP final concentration 1 μM, in vitro, read-out: Inhibitory effect on platelet aggregation in vitro (IC50) guinea pig
Kindly supply the reported pIC50 values for the records listed here.
Schema: pIC50 number; meaning minus log10 of the concentration expressed in molar units.

Look up and state reported pIC50 for N=C(N)Nc1ccc(C(=O)NCC(=O)N2CCN(CC(=O)O)C(=O)[C@@H]2CC(=O)O)cc1 6.47

Look up and state reported pIC50 for CC(C)(C)C(=O)OCOC(=O)CN1CCN(C(=O)CNC(=O)c2ccc(C(=N)N)cc2)[C@@H](Cc2ccccc2)C1=O 6.34

Look up and state reported pIC50 for N=C(N)c1ccc(CC(=O)NCC(=O)N2CCN(CC(=O)O)C(=O)[C@@H]2CC(=O)O)cc1 5.80

Look up and state reported pIC50 for NCCc1ccc(C(=O)NCC(=O)N2CCN(CC(=O)O)C(=O)[C@@H]2CC(N)=O)cc1 7.08

Look up and state reported pIC50 for COC(=O)CC[C@H]1C(=O)N(CC(=O)O)CCN1C(=O)CNC(=O)c1ccc(CCN(C)C)cc1 5.64

Look up and state reported pIC50 for CN(CC(=O)N1CCN(CC(=O)O)C(=O)[C@@H]1CC(=O)O)C(=O)[C@H]1CC[C@H](CNC(=N)N)CC1 5.96

====

Kindly supply the reported pIC50 values for the records listed here.
assayed system: GPIIb/IIIa (Homo sapiens, UniProt P05106+P08514)
Construct: Purification of GPIIb/IIIa from HEL Cells; endogenous in cells; ATCC TIB180), human erythroleukemia; GPIIb/IIIa solubilized in Triton X-100, purified and adsorbed on microtiter plates
Sequence (P08514 32-887 limits assumed): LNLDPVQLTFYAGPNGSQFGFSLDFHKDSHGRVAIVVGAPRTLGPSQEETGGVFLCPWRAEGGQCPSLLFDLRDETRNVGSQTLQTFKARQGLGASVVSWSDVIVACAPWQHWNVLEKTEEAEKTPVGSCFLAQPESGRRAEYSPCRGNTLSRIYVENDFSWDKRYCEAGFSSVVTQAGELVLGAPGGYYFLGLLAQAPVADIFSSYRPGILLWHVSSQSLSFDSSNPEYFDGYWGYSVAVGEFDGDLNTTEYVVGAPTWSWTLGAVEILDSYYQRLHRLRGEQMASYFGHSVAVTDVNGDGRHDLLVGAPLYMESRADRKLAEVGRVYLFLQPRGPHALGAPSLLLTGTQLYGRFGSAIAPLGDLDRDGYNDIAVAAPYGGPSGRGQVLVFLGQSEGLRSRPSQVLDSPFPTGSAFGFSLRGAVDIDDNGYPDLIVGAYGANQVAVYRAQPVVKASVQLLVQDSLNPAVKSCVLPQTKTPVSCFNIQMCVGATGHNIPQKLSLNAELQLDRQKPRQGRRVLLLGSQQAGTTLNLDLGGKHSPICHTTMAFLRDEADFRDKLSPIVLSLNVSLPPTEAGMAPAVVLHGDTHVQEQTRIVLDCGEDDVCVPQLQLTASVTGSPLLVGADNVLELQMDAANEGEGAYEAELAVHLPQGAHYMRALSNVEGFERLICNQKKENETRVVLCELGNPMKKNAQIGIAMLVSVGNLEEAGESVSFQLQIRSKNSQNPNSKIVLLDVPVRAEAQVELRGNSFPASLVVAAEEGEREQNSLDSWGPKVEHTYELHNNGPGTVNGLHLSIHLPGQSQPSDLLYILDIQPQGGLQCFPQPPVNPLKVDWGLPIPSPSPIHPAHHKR
Sequence (P08514 891-1039 limits assumed): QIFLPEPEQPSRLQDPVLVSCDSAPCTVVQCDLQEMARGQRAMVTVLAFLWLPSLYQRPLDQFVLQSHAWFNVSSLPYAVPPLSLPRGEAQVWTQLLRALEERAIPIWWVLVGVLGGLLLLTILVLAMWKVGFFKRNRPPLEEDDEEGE
Sequence (P05106 27-788): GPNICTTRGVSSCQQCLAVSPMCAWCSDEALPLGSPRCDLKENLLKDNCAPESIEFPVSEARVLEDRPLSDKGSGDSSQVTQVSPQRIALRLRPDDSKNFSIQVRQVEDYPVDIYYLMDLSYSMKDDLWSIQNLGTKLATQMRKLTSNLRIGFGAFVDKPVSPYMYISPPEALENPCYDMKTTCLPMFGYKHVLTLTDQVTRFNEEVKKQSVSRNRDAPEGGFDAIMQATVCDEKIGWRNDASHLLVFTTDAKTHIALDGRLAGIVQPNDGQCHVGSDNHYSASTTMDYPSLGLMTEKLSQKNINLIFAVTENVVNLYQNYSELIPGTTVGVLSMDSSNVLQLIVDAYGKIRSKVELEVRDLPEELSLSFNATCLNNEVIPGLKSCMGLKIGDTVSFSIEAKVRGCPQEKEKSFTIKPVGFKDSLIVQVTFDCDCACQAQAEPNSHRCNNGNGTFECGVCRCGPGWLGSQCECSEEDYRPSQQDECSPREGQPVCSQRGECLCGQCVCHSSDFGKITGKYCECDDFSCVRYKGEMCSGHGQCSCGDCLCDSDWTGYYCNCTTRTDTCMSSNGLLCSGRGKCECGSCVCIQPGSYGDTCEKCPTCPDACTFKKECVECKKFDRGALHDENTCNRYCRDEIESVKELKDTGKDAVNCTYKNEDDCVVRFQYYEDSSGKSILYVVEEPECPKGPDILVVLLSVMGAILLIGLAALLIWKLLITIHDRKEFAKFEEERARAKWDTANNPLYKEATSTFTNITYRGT
assay procedure: Inhibition of fibrinogen binding to GPIIb/IIIa
experimental context: purified GPIIb/IIIa from HEL cells, biotinylated human fibrinogen 1 nM
Method: (1) Cultibation of Cells Derived from Human Erythroleukemia (Hereinafter Referred to as HEL Cells) HEL cells (HEL 92. 1. 7; ATCC No. TIB180) were purchased from ATCC (Rockville, Md., U.S.A.). The cells were grown in RPMI medium containing 40 mM N-2-hydroxyethylpiperazin-N'-2-ethanesulfonic acid (hereinafter referred to as HEPES) (pH 7.0), 100 μg/ml of Kanamycin and 10% FCS (GIBCO Laboratories, Grand Island, N.Y., U.S.A.). Cultivation was conducted at 37° C in the presence of 5% CO2. […]
Schema: pIC50 number; meaning minus log10 of the concentration expressed in molar units.

Look up and state reported pIC50 for N=C(N)NCc1ccc(C(=O)NCC(=O)N2CCN(CC(=O)O)C(=O)[C@@H]2CC(=O)O)cc1 7.74

Look up and state reported pIC50 for N=C(N)c1ccc(C(=O)NCC(=O)N2CCN(CC(=O)O)C(=O)[C@@H]2CC(N)=O)cc1 9.04

Look up and state reported pIC50 for COC(=O)CC[C@H]1C(=O)N(CC(=O)O)CCN1C(=O)CNC(=O)c1ccc(CCN(C)C)cc1 7.43

====

assayed system: GPIIb/IIIa (Homo sapiens, UniProt P05106+P08514)
Construct: Purification of GPIIb/IIIa from HEL Cells; endogenous in cells; ATCC TIB180), human erythroleukemia; GPIIb/IIIa solubilized in Triton X-100, purified and adsorbed on microtiter plates
assay procedure: Inhibition of fibrinogen binding to GPIIb/IIIa
experimental context: purified GPIIb/IIIa from HEL cells, biotinylated human fibrinogen 1 nM
Kindly supply the reported IC50 values for the records listed here.
Give the number; nM is assumed, so skip it.

Report the value of IC50 obtained on GPIIb/IIIa (Homo sapiens, UniProt P05106+P08514) for NCCCc1ccc(C(=O)NCC(=O)N2CCN(CC(=O)O)C(=O)[C@@H]2CC(=O)O)cc1 [compound 48] . 15

Report the value of IC50 obtained on GPIIb/IIIa (Homo sapiens, UniProt P05106+P08514) for N=C(N)c1ccc(C(=O)NCC(=O)N2CCN(CC(=O)O)C(=O)C2)cc1 [compound 55] . 0.42

Report the value of IC50 obtained on GPIIb/IIIa (Homo sapiens, UniProt P05106+P08514) for COC(=O)CC[C@H]1C(=O)N(CC(=O)O)CCN1C(=O)CNC(=O)c1ccc(CCN)cc1 [compound 80] . 0.89

Report the value of IC50 obtained on GPIIb/IIIa (Homo sapiens, UniProt P05106+P08514) for CN(C)CCc1ccc(C(=O)NCC(=O)N2CCN(CC(=O)O)C(=O)[C@@H]2CCC(=O)O)cc1 [compound 77] . 45

Report the value of IC50 obtained on GPIIb/IIIa (Homo sapiens, UniProt P05106+P08514) for COC(=O)C[C@H]1C(=O)N(CC(=O)O)CCN1C(=O)CNC(=O)c1ccc(C(=N)N)cc1 [compound 59] . 0.49

Report the value of IC50 obtained on GPIIb/IIIa (Homo sapiens, UniProt P05106+P08514) for N=C(N)NC[C@H]1CC[C@H](C(=O)NCC(=O)N2CCN(CC(=O)O)C(=O)[C@@H]2CC(=O)O)CC1 [compound 5] . 20

Report the value of IC50 obtained on GPIIb/IIIa (Homo sapiens, UniProt P05106+P08514) for N=C(N)Nc1ccc(C(=O)N2CCC[C@H]2C(=O)N2CCN(CC(=O)O)C(=O)[C@@H]2CC(=O)O)cc1 [compound 50] . 21
